Hello, the source for this data is patent US20120178701A1, in case you need it.

biological target: T1, human recombinant melanocortin-4 receptor (human, UniProt P32245 1-332); experiment: competitive inhibition of Eu-NDP-α-MSH (TRF), hMC4-R HEK-293 membranes
T1 construct: whole, on cells; cAMP assays used the whole cells; also called hMC4-R; MC4-R
T1 sequence (P32245 whole entry): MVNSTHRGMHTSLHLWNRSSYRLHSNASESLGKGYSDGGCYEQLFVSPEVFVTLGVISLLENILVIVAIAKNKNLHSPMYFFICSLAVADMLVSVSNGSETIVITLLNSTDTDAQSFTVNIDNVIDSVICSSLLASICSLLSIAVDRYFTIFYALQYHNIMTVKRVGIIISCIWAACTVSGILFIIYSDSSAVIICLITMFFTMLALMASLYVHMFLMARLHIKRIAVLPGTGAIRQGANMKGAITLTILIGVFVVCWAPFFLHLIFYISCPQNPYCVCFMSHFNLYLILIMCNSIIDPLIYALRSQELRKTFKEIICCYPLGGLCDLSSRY
Numbered stars: 1 amine (or outer) side, 2 acyl side, 3 side chain; on linkers, the order of the positions; unused ones are H or OH. Bridge positions count the residues as written; N and C are the ends. Square brackets hold non-standard residues; d marks the D form. Hyp(Bzl) = O-benzyl-hydroxyproline, O=C([C@@H]1C[C@@H](OCc2ccccc2)CN1[*:1])[*:2]; Orn = NCCC[C@H](N)C(=O)O; Dab = NCC[C@H](N)C(=O)O
Readout Kind: Ki (nM)

Binder: Ac-R[Orn][Dab][dF]RWE-NH2 (lactam 2-7, also called peptide No. 119) [Ac-Arg-cyclo(Orn-Dab-D-Phe-Arg-Trp-Glu)-NH2]
Data Value: 3

Binder: Ac-RDQ[dF]RWK-NH2 (lactam 2-7, any difference is only in the drawings; also called peptide No. 78) [Ac-Arg-cyclo(Asp-Gln-D-Phe-Arg-Trp-Lys)-NH2]
Data Value: 86

Binder: KDHFRWK (HELM PEPTIDE1{[ac].K.D.H.[dF].R.W.K.[am]}$PEPTIDE1,PEPTIDE1,3:R3-8:R3$$$V2.0; SMILES CC(=O)N[C@@H](CCCCN)C(=O)N[C@H]1CC(=O)NCCCC[C@@H](C(N)=O)NC(=O)[C@H](Cc2c[nH]c3ccccc23)NC(=O)[C@H](CCCNC(=N)N)NC(=O)[C@@H](Cc2ccccc2)NC(=O)[C@H](Cc2c[nH]cn2)NC1=O, also called peptide No. 135) [Ac-Lys-cyclo(Asp-His-D-Phe-Arg-Trp-Lys)-NH2]
Data Value: 9

Binder: Ac-R[Orn]H[dF]RWE-OH (lactam 2-7, also called peptide No. 84) [Ac-Arg-cyclo(Orn-His-D-Phe-Arg-Trp-Glu)-OH]
Data Value: 12

Binder: Ac-RD[Hyp(Bzl)][dF]RWK-NH2 (lactam 2-7, also called peptide No. 15) [Ac-Arg-cyclo(Asp-Hyp(Bzl)-D-Phe-Arg-Trp-Lys)-NH2]
Data Value: 0.7

Binder: Ac-RD[Pro(4R-2-Cl-Bzl)][dF]RWK-NH2 (lactam 2-7, also called peptide No. 123) [Ac-Arg-cyclo(Asp-Pro(4R-2-Cl-Bzl)-D-Phe-Arg-Trp-Lys)-NH2]
Data Value: 8

Binder: RDAFKWK (HELM PEPTIDE1{[ac].R.D.A.[dF].K.W.K.[am]}$PEPTIDE1,PEPTIDE1,3:R3-8:R3$$$V2.0; SMILES CC(=O)N[C@@H](CCCNC(=N)N)C(=O)N[C@H]1CC(=O)NCCCC[C@@H](C(N)=O)NC(=O)[C@H](Cc2c[nH]c3ccccc23)NC(=O)[C@H](CCCCN)NC(=O)[C@@H](Cc2ccccc2)NC(=O)[C@H](C)NC1=O, also called peptide No. 8) [Ac-Arg-cyclo(Asp-Ala-D-Phe-Lys-Trp-Lys)-NH2]
Data Value: 3020

Binder: RDLFRWK (HELM PEPTIDE1{[ac].R.D.L.[dF].R.W.K.[am]}$PEPTIDE1,PEPTIDE1,3:R3-8:R3$$$V2.0; SMILES CC(=O)N[C@@H](CCCNC(=N)N)C(=O)N[C@H]1CC(=O)NCCCC[C@@H](C(N)=O)NC(=O)[C@H](Cc2c[nH]c3ccccc23)NC(=O)[C@H](CCCNC(=N)N)NC(=O)[C@@H](Cc2ccccc2)NC(=O)[C@H](CC(C)C)NC1=O, also called peptide No. 12) [Ac-Arg-cyclo(Asp-Leu-D-Phe-Arg-Trp-Lys)-NH2]
Data Value: 33

Binder: Ac-K[Orn]H[dF]RWE-NH2 (lactam 2-7, also called peptide No. 132) [Ac-Lys-cyclo(Orn-His-D-Phe-Arg-Trp-Glu)-NH2]
Data Value: 3
